# credit: patent US20250388664A1

Molecular target: T1, truncated cTfR1 of SEQ ID NO:123 (cynomolgus monkey, UniProt Q5RDH6 122-760 (Pongo abelii entry))
T1 construct: also called cynomolgus TfR1
T1 chain: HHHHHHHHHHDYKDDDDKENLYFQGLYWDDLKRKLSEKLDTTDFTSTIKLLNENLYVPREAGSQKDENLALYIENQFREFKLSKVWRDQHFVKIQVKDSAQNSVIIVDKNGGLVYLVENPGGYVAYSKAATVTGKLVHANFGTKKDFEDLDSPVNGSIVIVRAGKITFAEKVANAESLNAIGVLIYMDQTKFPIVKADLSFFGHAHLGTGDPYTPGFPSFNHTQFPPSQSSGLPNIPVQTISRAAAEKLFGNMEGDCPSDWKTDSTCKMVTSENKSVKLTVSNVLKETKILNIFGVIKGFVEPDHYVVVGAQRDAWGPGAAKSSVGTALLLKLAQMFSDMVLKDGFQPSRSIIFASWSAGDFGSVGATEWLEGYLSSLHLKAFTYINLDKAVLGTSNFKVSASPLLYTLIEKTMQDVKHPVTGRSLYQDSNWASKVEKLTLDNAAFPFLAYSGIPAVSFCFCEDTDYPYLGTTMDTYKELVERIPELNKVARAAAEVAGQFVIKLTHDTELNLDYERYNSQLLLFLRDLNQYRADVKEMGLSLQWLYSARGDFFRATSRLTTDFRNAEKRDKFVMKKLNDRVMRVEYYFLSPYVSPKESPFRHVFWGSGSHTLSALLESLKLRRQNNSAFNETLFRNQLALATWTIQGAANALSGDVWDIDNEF
Test: SPR, FLAG-captured TfR1, scFv injected, 1:1 fit
pKd: −log10 of the molar value.
Each entry below lists one item and its recorded pKd value.

{"Binder": "h26D3 HC6 DS V11R (scFv, also called h26D3 DS V11R) scFv: HHHHHHGGGGSGGGGSGGGGSGGGGSDIQMTQSPSSVSASVGDRVTITCKSSQSLLYSTNQKNYLAWYQQKPGKAPKLLIYWASTRESGVPSRFSGSGSGTDFTLTISSLQPEDFATYYCQQYFIYPRTFGCGTKVEIKGGGGSGGGGSGGGGSGGGGSEVQLVQSGAERKKPGSSVKVSCKASGYIFTDYNMDWVRQAPGQCLEWIGDINPDADTTSYNEKFKGRATLTVDKSTSTAYMELSSLRSEDTAVYYCARGGYSGSSYYHPMDYWGQGTLVTVSS", "pKd": 6.65}
{"Binder": "h26D3 HC6 DS S122K (scFv, also called h26D3 DS S122K) scFv: HHHHHHGGGGSGGGGSGGGGSGGGGSDIQMTQSPSSVSASVGDRVTITCKSSQSLLYSTNQKNYLAWYQQKPGKAPKLLIYWASTRESGVPSRFSGSGSGTDFTLTISSLQPEDFATYYCQQYFIYPRTFGCGTKVEIKGGGGSGGGGSGGGGSGGGGSEVQLVQSGAEVKKPGSSVKVSCKASGYIFTDYNMDWVRQAPGQCLEWIGDINPDADTTSYNEKFKGRATLTVDKSTSTAYMELSSLRSEDTAVYYCARGGYSGSSYYHPMDYWGQGTLVTVKS", "pKd": 6.77}
